Quick reference: IC50 of the listed items.
# TESTED ON: recombinant autotaxin (Homo sapiens)
# Construct: made in house; host or cells: Hi5 insect cells (baculovirus)
# ASSAY REMARKS: Autotaxin test (enzyme test), Amplex Red
# Format: biochemical
# DETAILS: Autotaxin inhibition (enzyme test), TABLE 1 (A compounds); substrate LPC 75 μM

Known IC50 results, listed for orientation:
# COMPOUND, IC50
measured = [
    ("COc1ccccc1NC(=O)CN1CCc2nc3ccccc3c(C(=O)N3CCOCC3)c2C1 [Compound A10]", "> 1000 nM"),
    ("COc1ccc(Cl)cc1NC(=O)CN1CCc2nc3ccccc3c(C(=O)N3CCN(C(=O)OCc4ccccc4)CC3)c2C1 [Compound A25]", "100 to 1000 nM"),
    ("O=C(CN1CCc2nc3ccccc3c(C(=O)N3CCOCC3)c2C1)Nc1cc(Cl)ccc1OCCO [Compound A54]", "100 to 1000 nM"),
]

Enquiry: Would you kindly share the measured IC50 for COc1ccc(Br)cc1NC(=O)CN1CCc2nc3ccccc3c(C(=O)N3CCN(CCO)CC3)c2C1 [Compound A69] ?
Return: < 100 nM

Enquiry: Look up IC50 for this compound: Cc1ccc(Cl)cc1NC(=O)CN1CCc2nc3ccccc3c(C(=O)N3CCOCC3)c2C1 [Compound A11]
Return: > 1000 nM

Enquiry: Recorded IC50 for O=C(CN1CCc2nc3ccccc3c(C(=O)N3CCN(CCO)CC3)c2C1)Nc1cc(Cl)ccc1OCCO [Compound A61] , please?
Return: 100 to 1000 nM

Enquiry: I'd like to know its IC50. The compound in question is O=C(CN1CCc2nc3ccccc3c(C(=O)N3CCN(CCO)CC3)c2C1)Nc1ccc(N2CCCC2=O)c(Cl)c1 [Compound A64]
Return: > 1000 nM

Enquiry: Please give the measured IC50 for this compound: CN1CCN(C(=O)c2c3c(nc4ccccc24)CCN(C(=O)CCc2ccc(Cl)cc2Cl)C3)CC1 [Compound A31]
Return: > 1000 nM

Enquiry: Return reported IC50; argument: O=C(CN1CCc2nc3ccccc3c(C(=O)N3CCN(CCO)CC3)c2C1)Nc1cc(Cl)ccc1F [Compound A78]
Return: 100 to 1000 nM

Enquiry: Which IC50 is listed for CCOc1ccc(Cl)cc1NC(=O)CN1CCc2nc3ccccc3c(C(=O)N3CCOCC3)c2C1 [Compound A41] ?
Return: > 1000 nM
